Origin of measurements: patent US6979686B1

Target: human p38 kinase alpha (Homo sapiens, UniProt Q16539)
Construct: GST (N, cleaved yes); made in house; host or cells: E. coli DH10B
Sequence (Q16539 whole entry): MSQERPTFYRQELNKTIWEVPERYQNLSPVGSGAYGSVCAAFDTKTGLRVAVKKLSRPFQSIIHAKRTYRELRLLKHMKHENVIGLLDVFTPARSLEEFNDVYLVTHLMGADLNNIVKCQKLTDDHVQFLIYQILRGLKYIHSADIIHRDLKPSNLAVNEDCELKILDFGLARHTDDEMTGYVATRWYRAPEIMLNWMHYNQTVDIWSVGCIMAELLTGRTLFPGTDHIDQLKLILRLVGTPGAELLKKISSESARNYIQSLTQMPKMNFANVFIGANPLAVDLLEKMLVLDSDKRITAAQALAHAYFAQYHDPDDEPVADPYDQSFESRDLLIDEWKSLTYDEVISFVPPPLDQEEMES
Assay: p38 kinase in vitro assay, phosphorylation of biotinylated PHAS-I with 32P-ATP
Assay type: biochemical
Settings: in vitro P38-alpha kinase inhibition; read-out: P38 alpha kinase IC50
Protocol: The coding region of the human p38a cDNA was obtained by PCR-amplification from RNA isolated from the human monocyte cell line THP.1. […] Random primer, dNTP's and Superscript™ reagents were all purchased from Life-Technologies, Gaithersburg, Mass. The reaction was incubated at 42° C. for 1 hour. […]
Quantity Name: IC50 (nM)

Before answering, review these 5 worked examples.
CCCCOc1ccc(S(=O)(=O)NC(C)c2[nH]nc(-c3ccc(F)cc3)c2-c2ccncc2)cc1 (stereo not drawn) [Example B-0456]: 1310
COc1ccc(S(=O)(=O)NC(Cc2ccccc2)c2[nH]nc(-c3ccc(F)cc3)c2-c2ccncc2)cc1OC (stereo not drawn) [Example B-0722]: 70
CCCOC(=O)NC(Cc1ccccc1)c1[nH]nc(-c2ccc(F)cc2)c1-c1ccncc1 (stereo not drawn) [Example B-0792]: 1100
CC(NS(C)(=O)=O)c1[nH]nc(-c2ccc(F)cc2)c1-c1ccncc1 (stereo not drawn) [Example B-0573]: 360
CNC(=O)CCC(NC(=O)C1CC1)c1[nH]nc(-c2ccc(F)cc2)c1-c1ccncc1 (stereo not drawn) [Example B-0866]: 1380

(P) CC(C)S(=O)(=O)NC(Cc1ccccc1)c1[nH]nc(-c2ccc(F)cc2)c1-c1ccncc1 (stereo not drawn) [Example B-0754]
(Q) COc1ccc(NC(=O)NC(Cc2ccccc2)c2[nH]nc(-c3ccc(F)cc3)c2-c2ccncc2)c(OC)c1 (stereo not drawn) [Example B-0744]
(R) CCCOC(=O)NC(Cc1ccccc1)c1[nH]nc(-c2ccc(F)cc2)c1-c1ccncc1 (stereo not drawn) [Example B-0747]
(S) O=S(=O)(NCCc1[nH]nc(-c2ccc(F)cc2)c1-c1ccncc1)c1ccc(-c2ccccc2)cc1 [Example B-1109]
Give the ascending ranking of the items by reported IC50. Please respond with the labels ordered as the question requires.
S, P, R, Q
